Assay: NCI Yeast Anticancer Drug Screen. Data for the mec2-1 strain (AID 157)
Details: S. cerevisiae mec2-1 strain, at 50.0 µM (retest, dose inferred, filed as 5.0), hits give high values
Protocol: Growth inhibition of yeast strains with defined genetic alterations is measured as a screen for potential anti-cancer activity. Selected strains with alterations in DNA damage repair or cell cycle control were exposed to compounds and growth inhibition was measured relative to vehicle treated controls. The strain used in this assay is mec2-1
This is part of a sample that, as a whole, favours compounds with a hit. Of some 79,000 tested, about 15% had one in any assay.
Note to self: values exactly at 40% are rule met. So growth inhibition at or above 40% is rule met, below is rule not met.

Use these answered entries as a reference point.
| COMPOUND | ANSWER LABEL |
| --- | --- |
| CC(=O)OC1CCC2(C)C3=C(CCC2C1(C)C)C1(C)CCC(C(C)CCC2NC2(C)C)C1(C)CC3 (stereo unspecified) | rule met |
| [Pt].c1ccc(P(CCP(c2ccccc2)c2ccccc2)CCP(c2ccccc2)c2ccccc2)cc1 | rule met |
| Cc1cc(N(CCCl)CCCl)ccc1CN1CCCN(Cc2ccc(N(CCCl)CCCl)cc2C)C1c1cccc(F)c1 | rule met |

Given CCOC(=O)/C(=C\c1ccc(C(=O)OC)cc1)[Se]c1ccccc1 , state whether its growth inhibition is at least 40%.
rule not met

Given O=c1oc2ccccc2c(O)c1C(c1ccc2c(c1)Cc1ccccc1-2)c1c(O)c2ccccc2oc1=O , state whether its growth inhibition is at least 40%.
rule met

Given CS/C([S-])=N/N=C(C)C.CS/C([S-])=N/N=C(C)C.[Ni+2] , state whether its growth inhibition is at least 40%.
rule met
